Kindly supply the reported IC50 values for the records listed here.
molecular target: Toll-like receptor 4 (Mus musculus); assay: Inhibition of LPS-induced TLR4 activation in thioglycollate-elicited mouse peritoneal macrophages assessed as inhibition of IL-6 production after 18 hrs by ELISA
Numeric only. Scale: µM

Specify measured IC50 for `CCCCCCCCCCCCCCCCO[C@H](COC(=O)CCCCCCCCCCCCCCC)COP(=O)(O)O[C@@H]1[C@H](O[C@H]2O[C@H](CO)[C@@H](O)[C@H](O)[C@@H]2O)[C@H](O)[C@@H](O)[C@H](O)[C@H]1O[C@H]1O[C@H](CO)[C@@H](O)[C@H](O)[C@@H]1O` .
30.3

Please report the measured IC50 for `CCCCCCCCCCCCCCCCOC[C@H](COP(=O)(O)O[C@@H]1[C@H](O[C@H]2O[C@H](CO)[C@@H](O)[C@H](O)[C@@H]2O)[C@H](O)[C@@H](O)[C@H](O)[C@H]1O[C@H]1O[C@H](CO)[C@@H](O)[C@H](O)[C@@H]1O)OC(=O)CCCCCCCCCCCCCCC`
28.8

Please report the measured IC50 for `CCCCCCCCCCCCCCCCOC[C@H](COP(=O)(O)O[C@@H]1[C@H](O[C@H]2O[C@H](CO)[C@@H](O)[C@H](O)[C@@H]2O)[C@H](O)[C@@H](O)[C@H](O)[C@H]1O[C@H]1O[C@H](CO)[C@@H](O)[C@H](O)[C@@H]1O)OCCCCCCCCCCCCCCCC`
23.3

Give me measured IC50, please, for this compound: `CCCCCCCCCCCCCCCCO[C@H](COC(=O)CCCCCCCCCCCCCCC)COP(=O)(O)OC(CO[C@H]1O[C@H](CO)[C@@H](O)[C@H](O)[C@@H]1O)CO[C@H]1O[C@H](CO)[C@@H](O)[C@H](O)[C@@H]1O`
42.8

Output measured IC50 for this item: `CCCCCCCCCCCCCCCC(=O)OC[C@H](COP(=O)(O)O[C@@H]1[C@H](O[C@H]2O[C@H](CO)[C@@H](O)[C@H](O)[C@@H]2O)[C@H](O)[C@@H](O)[C@H](O)[C@H]1O[C@H]1O[C@H](CO)[C@@H](O)[C@H](O)[C@@H]1O)OC(=O)CCCCCCCCCCCCCCC`
40.2

Return IC50 for the following compound: `CCCCCCCCCCCCCCCC(=O)N[C@H](COC(=O)CCCCCCCCCCCCCCC)COP(=O)(O)O[C@@H]1[C@H](O[C@H]2O[C@H](CO)[C@@H](O)[C@H](O)[C@@H]2O)[C@H](O)[C@@H](O)[C@H](O)[C@H]1O[C@H]1O[C@H](CO)[C@@H](O)[C@H](O)[C@@H]1O`
22.7

Item `CCCCCCCCCCCCCCCC(=O)OC[C@H](COP(=O)(O)OC(CO[C@H]1O[C@H](CO)[C@@H](O)[C@H](O)[C@@H]1O)CO[C@H]1O[C@H](CO)[C@@H](O)[C@H](O)[C@@H]1O)OC(=O)CCCCCCCCCCCCCCC` : provide IC50
12.9

====

Biological target: UniProt:Q9QUK6
Sequence (whole entry): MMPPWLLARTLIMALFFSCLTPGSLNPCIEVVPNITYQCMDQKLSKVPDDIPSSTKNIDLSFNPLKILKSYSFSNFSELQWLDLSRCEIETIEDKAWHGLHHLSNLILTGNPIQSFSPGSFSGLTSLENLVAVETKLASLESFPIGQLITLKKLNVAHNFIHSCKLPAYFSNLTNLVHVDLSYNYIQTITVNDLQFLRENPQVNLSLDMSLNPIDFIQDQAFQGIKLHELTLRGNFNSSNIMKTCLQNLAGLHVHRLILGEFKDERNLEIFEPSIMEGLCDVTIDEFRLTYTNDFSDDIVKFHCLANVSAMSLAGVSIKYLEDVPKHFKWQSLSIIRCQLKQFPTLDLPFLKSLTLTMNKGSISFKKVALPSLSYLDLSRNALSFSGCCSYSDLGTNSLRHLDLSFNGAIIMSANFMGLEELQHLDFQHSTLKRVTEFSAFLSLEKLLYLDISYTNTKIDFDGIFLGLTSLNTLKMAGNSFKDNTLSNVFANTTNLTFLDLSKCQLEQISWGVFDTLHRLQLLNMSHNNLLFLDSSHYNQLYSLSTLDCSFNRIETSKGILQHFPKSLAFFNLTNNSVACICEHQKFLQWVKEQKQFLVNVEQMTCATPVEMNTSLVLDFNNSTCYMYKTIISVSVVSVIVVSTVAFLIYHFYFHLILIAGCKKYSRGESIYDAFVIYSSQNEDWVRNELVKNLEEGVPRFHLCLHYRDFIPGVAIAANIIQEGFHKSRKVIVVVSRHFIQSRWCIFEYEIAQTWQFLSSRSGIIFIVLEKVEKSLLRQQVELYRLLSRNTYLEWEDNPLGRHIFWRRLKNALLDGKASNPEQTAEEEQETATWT
Assay: Agonist activity at TLR4 in thioglycollate-elicited mouse peritoneal macrophages assessed as induction of IL-6 production in after 18 hrs by ELISA
Format: functional
Exercise: for every item that follows, state its recorded Activity.
# unit: pg/mL | format: bare number

For the molecule `CCCCCCCCCCCCCCCCO[C@H](COC(=O)CCCCCCCCCCCCCCC)COP(=O)(O)O[C@@H]1[C@H](O[C@H]2O[C@H](CO)[C@@H](O)[C@H](O)[C@@H]2O)[C@H](O)[C@@H](O)[C@H](O)[C@H]1O[C@H]1O[C@H](CO)[C@@H](O)[C@H](O)[C@@H]1O` , give its reported Activity.
1460

Give Activity for `CCCCCCCCCCCCCCCCOC[C@H](COP(=O)(O)O[C@@H]1[C@H](O[C@H]2O[C@H](CO)[C@@H](O)[C@H](O)[C@@H]2O)[C@H](O)[C@@H](O)[C@H](O)[C@H]1O[C@H]1O[C@H](CO)[C@@H](O)[C@H](O)[C@@H]1O)OC(=O)CCCCCCCCCCCCCCC`
1130

Give a short answer stating reported Activity for `CCCCCCCCCCCCCCCCO[C@H](COC(=O)CCCCCCCCCCCCCCC)COP(=O)(O)OC(CO[C@H]1O[C@H](CO)[C@@H](O)[C@H](O)[C@@H]1O)CO[C@H]1O[C@H](CO)[C@@H](O)[C@H](O)[C@@H]1O` .
923

Supply reported Activity belonging to this molecule: `CCCCCCCCCCCCCCCC(=O)N[C@H](COC(=O)CCCCCCCCCCCCCCC)COP(=O)(O)O[C@@H]1[C@H](O[C@H]2O[C@H](CO)[C@@H](O)[C@H](O)[C@@H]2O)[C@H](O)[C@@H](O)[C@H](O)[C@H]1O[C@H]1O[C@H](CO)[C@@H](O)[C@H](O)[C@@H]1O`
664
